- measured-on: E. coli ATP synthase (purified F1 or membrane bound F1Fo) (Escherichia coli, UniProt P0ABA6+P0ABB0+P0ABB4)
- Sequence (P0ABA4 whole entry): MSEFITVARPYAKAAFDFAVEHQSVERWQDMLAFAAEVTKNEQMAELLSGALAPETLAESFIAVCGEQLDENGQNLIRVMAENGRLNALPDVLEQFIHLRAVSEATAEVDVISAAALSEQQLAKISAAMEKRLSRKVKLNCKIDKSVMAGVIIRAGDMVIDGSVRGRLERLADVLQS
- Sequence (P0ABB4 2-460): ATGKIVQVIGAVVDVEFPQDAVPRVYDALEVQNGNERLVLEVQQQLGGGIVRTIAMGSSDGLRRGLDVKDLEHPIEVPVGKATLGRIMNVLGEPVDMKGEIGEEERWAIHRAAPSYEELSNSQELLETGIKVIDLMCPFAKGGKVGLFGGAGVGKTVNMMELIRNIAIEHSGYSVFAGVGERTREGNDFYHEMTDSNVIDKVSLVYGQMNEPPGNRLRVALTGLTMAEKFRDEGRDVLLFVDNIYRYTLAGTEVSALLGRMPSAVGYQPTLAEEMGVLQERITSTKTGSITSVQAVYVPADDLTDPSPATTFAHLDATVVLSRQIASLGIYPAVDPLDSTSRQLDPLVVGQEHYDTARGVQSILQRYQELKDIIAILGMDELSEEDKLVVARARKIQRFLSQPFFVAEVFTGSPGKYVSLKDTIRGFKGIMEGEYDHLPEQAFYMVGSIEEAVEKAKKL
- Sequence (P0ABA6 whole entry): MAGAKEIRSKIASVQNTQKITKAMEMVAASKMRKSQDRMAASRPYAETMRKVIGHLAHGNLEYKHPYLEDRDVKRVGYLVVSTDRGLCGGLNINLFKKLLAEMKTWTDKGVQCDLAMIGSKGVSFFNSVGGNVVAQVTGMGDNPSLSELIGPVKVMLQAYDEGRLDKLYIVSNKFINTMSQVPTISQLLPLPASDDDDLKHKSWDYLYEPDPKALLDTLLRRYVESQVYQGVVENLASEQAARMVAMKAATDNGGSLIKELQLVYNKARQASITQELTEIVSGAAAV
- Sequence (P0A6E6 2-139, further chain): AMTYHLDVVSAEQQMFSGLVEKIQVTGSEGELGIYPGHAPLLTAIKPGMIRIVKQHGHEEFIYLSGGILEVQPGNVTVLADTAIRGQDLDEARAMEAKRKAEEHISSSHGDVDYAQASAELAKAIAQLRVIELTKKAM
- Sequence (P0ABB0 whole entry): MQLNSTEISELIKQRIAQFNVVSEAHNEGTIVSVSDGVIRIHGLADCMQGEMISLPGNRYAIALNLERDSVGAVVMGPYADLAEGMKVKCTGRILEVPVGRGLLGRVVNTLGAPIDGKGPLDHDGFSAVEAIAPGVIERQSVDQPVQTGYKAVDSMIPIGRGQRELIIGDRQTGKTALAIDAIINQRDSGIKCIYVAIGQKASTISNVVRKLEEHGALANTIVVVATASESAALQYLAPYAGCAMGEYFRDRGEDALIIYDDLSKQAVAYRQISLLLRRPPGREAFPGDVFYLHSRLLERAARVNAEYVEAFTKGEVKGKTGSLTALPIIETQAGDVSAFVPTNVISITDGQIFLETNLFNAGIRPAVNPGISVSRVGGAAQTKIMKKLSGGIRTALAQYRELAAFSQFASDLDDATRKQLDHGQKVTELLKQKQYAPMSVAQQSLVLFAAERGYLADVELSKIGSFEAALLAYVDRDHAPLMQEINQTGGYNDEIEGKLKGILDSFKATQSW
- measurement-description: biochemical
- Assay type: biochemical
- run-parameters: left over ATPase activity at maximal inhibition
Residual ATPase Activity (%) values by entry
measure: Residual ATPase Activity (%)

Oc1ccc(N=Cc2ccccc2O)cc1 [PC05, 2-[[(4-hydroxyphenyl)Imino]methyl]phenol] | 0
Oc1cccc(C=Nc2ccccc2O)c1 [PC07, 3-[[(2-Hydroxyphenyl)imino]methyl]phenol] | 15
O=[N+]([O-])c1ccc(N=Cc2ccccc2O)c(O)c1 | 0
Oc1ccc(C=Nc2ccc(O)cc2)cc1 [PC11, 4-[[(4-Hydroxyphenyl)imino]methyl]phenol] | 80
O=[N+]([O-])c1ccc(OP(=O)(Oc2ccc([N+](=O)[O-])cc2)Oc2ccc([N+](=O)[O-])cc2)cc1 [PC14, Tris(4-nitrophenyl)phosphate] | 55
O=C1c2cccc(O)c2C(=O)c2c(O)cccc21 [PC16, 1,8-Dihydroxy-9,10-anthraquinone] | 78
Oc1cccc(C=Nc2cccc(O)c2)c1 [PC10, 3-[[(3-Hydroxyphenyl)imino]methyl]phenol] | 0
O=[N+]([O-])c1ccc(OP(=O)(O)Oc2ccc([N+](=O)[O-])cc2)cc1 [PC15, Bis(4-nitrophenyl)phosphate] | 60
Oc1cccc(N=Cc2ccccc2O)c1 [PC06, 2-[[(3-Hydroxyphenyl)imino]methyl]phenol] | 15
Cc1cc(O)c(C(C)C)cc1O [PC01, Dihydrothymoquinone] | 60
Oc1ccc(C=Nc2cccc(O)c2)cc1 [PC08, 4-[[(3-Hydroxyphenyl)imino]methyl]phenol] | 0
O=[N+]([O-])c1cc(O)ccc1N=Cc1ccccc1O | 0
Oc1ccccc1O | 60
Oc1ccccc1C=Nc1ccccc1O [PC09, 2-[[(2-Hydroxyphenyl)imino]methyl]phenol] | 5
Oc1cccc(O)c1 | 80
